- EXPERIMENT DESCRIPTION: NCI Yeast Anticancer Drug Screen. Data for the mec2-1 strain (AID 157)
- EXPERIMENTAL CONDITIONS: S. cerevisiae mec2-1 strain, at 50.0 µM
The panel holds about 79,000 compounds, 15% with a hit somewhere; the sample as a whole holds those more often. Active and inactive are the calls of the source. Rule as the data show it: active = growth inhibition above about 70%; inactive = the rest.
Choose one outcome from this list and give only that: active, inactive

Reference set (5 entries):
{"COMPOUND": "O=c1[nH]c2ccccc2c(O)c1/C=N/C(=S)NCCc1ccccc1", "CAT": "inactive"}
{"COMPOUND": "O=C(c1ccccc1)c1c(CO[N+](=O)[O-])n([O-])c2ccccc2[n+]1=O", "CAT": "active"}
{"COMPOUND": "Cc1cc(N)c2cc(OCCOc3ccc4nc(C)cc(N)c4c3)ccc2n1", "CAT": "active"}
{"COMPOUND": "CN(C)Cc1cc(C(C)(C)C)cc(C2CCCCC2)c1O", "CAT": "inactive"}
{"COMPOUND": "CS(C)=O.[Cl-].[Cl-].[NH-]CC(O)CN(Cc1ccccc1)CC(O)CN.[Pt] (centres undefined)", "CAT": "inactive"}

Dear colleague, could you share the recorded outcome for `COc1ccc(N=NC(C(=O)c2ccccc2)C(=O)c2ccccc2)cc1` when you have a moment?
active

Dear colleague, could you share the recorded outcome for Cc1[nH]c(=O)[nH]c(=S)c1C(=O)NC1C2CCCCC2NC2CCCCC21 (centres undefined) when you have a moment?
active

Dear colleague, could you share the recorded outcome for `Cc1cc2oc3c(ccc(=O)n3C)c(=O)c2c(C)c1Cl` when you have a moment?
inactive

Dear colleague, could you share the recorded outcome for `COc1ccc(C(=O)c2ccc([N+](=O)[O-])cc2)cc1` when you have a moment?
inactive

* * *

Each record here notes measured growth inhibition.
- EXPERIMENT DESCRIPTION: NCI Yeast Anticancer Drug Screen. Data for the bub3 strain (AID 167)
- EXPERIMENTAL CONDITIONS: S. cerevisiae bub3 mutant strain, at 5.0 µM (retest, dose inferred, filed as 0.5), hits give high values
The panel holds about 79,000 compounds, 15% with a hit somewhere; the sample as a whole holds those more often.
# unit: % | format: bare number

{"COMPOUND": "C=C1C(=O)C23CC[C@H]4C(C)(CCC[C@]4(C)C(=O)O)[C@@H]2CCC1C3 (some centres undefined)", "UNIT OF MEASUREMENT": "%", "growth inhibition": 95}
{"COMPOUND": "CCCCCCCCCCOC(=O)Nc1ccc(C)c(NC(=O)OCCCCCCCCCC)c1", "UNIT OF MEASUREMENT": "%", "growth inhibition": 0}

Given the compound `COc1ccc(/C=C(/C#N)c2ccccc2)cc1` , what is its reported growth inhibition?
10

Given the compound Nc1ccc(O)c2c1C(=O)c1ccccc1C2O (centres undefined) , what is its reported growth inhibition?
19

* * *

- EXPERIMENT DESCRIPTION: NCI Yeast Anticancer Drug Screen. Data for the bub3 strain (AID 167)
- EXPERIMENTAL CONDITIONS: S. cerevisiae bub3 mutant strain, at 50.0 µM (retest, dose inferred, filed as 5.0)
This is part of a sample that, as a whole, favours compounds with a hit. Of some 79,000 tested, about 15% had one in any assay. Activity calls are given as the source filed them. Cut-off read from the data, not from the text of the source: active = growth inhibition above about 70%; inactive = the rest.
Choose one outcome from this list and give only that: label 1 = active, label 0 = inactive

{"COMPOUND": "CC1(c2ccccc2)OC(=O)C=CC1=O (configuration not stated)", "CAT": "label 1"}
{"COMPOUND": "CCCC(c1ccc(O)cc1)c1ccc(O)cc1", "CAT": "label 1"}
{"COMPOUND": "C/C(CCn1[nH]c(=O)ccc1=O)=N\\NS(=O)(=O)c1ccc(C)cc1", "CAT": "label 0"}
{"COMPOUND": "Cc1cc2oc3c(ccc(=O)n3C)c(=O)c2c(C)c1Cl", "CAT": "label 0"}
{"COMPOUND": "COc1ccc2c(c1)CCC/C2=N\\NS(=O)(=O)c1c(C)cc(C)cc1C", "CAT": "label 0"}
{"COMPOUND": "CC[C@@]1(OP(=O)(O)O)C(=O)OCc2c1cc1n(c2=O)Cc2cc3ccccc3nc2-1", "CAT": "label 0"}
{"COMPOUND": "Cc1cc(O)c(/C=N/C(=S)Nc2ccc(S(N)(=O)=O)cc2)c(=O)o1", "CAT": "label 0"}
{"COMPOUND": "OC(C(=Nc1ccccc1)c1ccccc1)c1ccccc1 (configuration not stated)", "CAT": "label 1"}

Dear colleague, could you share the recorded outcome for `Oc1cc(F)ccc1-c1ccc(F)cc1` when you have a moment?
label 1

Dear colleague, could you share the recorded outcome for `Brc1ccc(-c2c3ccccc3cc3c2ccc2ccccc23)cc1` when you have a moment?
label 0

Dear colleague, could you share the recorded outcome for `CN(C)c1ccc(N=Nc2ccc3c4c(cccc24)-c2ccccc2-3)cc1` when you have a moment?
label 1

* * *

- EXPERIMENT DESCRIPTION: NCI Yeast Anticancer Drug Screen. Data for the bub3 strain (AID 167)
- EXPERIMENTAL CONDITIONS: S. cerevisiae bub3 mutant strain, at 5.0 µM (retest, dose inferred, filed as 0.5), hits give high values
- Procedure: Growth inhibition of yeast strains with defined genetic alterations is measured as a screen for potential anti-cancer activity. Selected strains with alterations in DNA damage repair or cell cycle control were exposed to compounds and growth inhibition was measured relative to vehicle treated controls. The strain used in this assay is bub3
The panel holds about 79,000 compounds, 15% with a hit somewhere; the sample as a whole holds those more often.
Each record here notes measured growth inhibition.
# unit: % | format: bare number

# count of solved cases: 4
{"MOLECULE": "Oc1cc2c(cc1C(c1ccc(F)cc1)N1CCCCC1)OCO2 (stereo unspecified)", "growth inhibition, %": -8}
{"MOLECULE": "O=C1CSC(c2ccc([N+](=O)[O-])cc2)N1c1ccc(-c2ccc(-n3c(-c4ccccc4)nc4ccccc4c3=O)cc2)cc1 (stereo unspecified)", "growth inhibition, %": -14}
{"MOLECULE": "CC1(C)C(=O)N(CCCCCCN2C(=O)C(C)(C)c3ccccc32)c2ccccc21", "growth inhibition, %": 12}
{"MOLECULE": "Nc1ccc(-c2nc3ccccc3s2)cc1", "growth inhibition, %": -2}

Given the molecule `O=C(Nn1cc(F)c(=O)[nH]c1=O)C12CC3CC(CC(C3)C1)C2` , what is its reported growth inhibition?
41

Given the molecule CCCC(Sc1ccccc1)c1ccccc1NC(C)=O (stereo unspecified) , what is its reported growth inhibition?
6

* * *

- EXPERIMENT DESCRIPTION: NCI Yeast Anticancer Drug Screen. Data for the rad50 strain (AID 155);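 also: 0% = growth of vehicle-only cultures of the same strain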
- EXPERIMENTAL CONDITIONS: S. cerevisiae rad50 strain growth inhibition; at 50.0 µM (retest, dose inferred, filed as 5.0)
This is part of a sample that, as a whole, favours compounds with a hit. Of some 79,000 tested, about 15% had one in any assay. Calls of active or inactive are those of the source. Rule as the data show it: active = growth inhibition above about 70%; inactive = the rest.
Choose one outcome from this list and give only that: YES = active, NO = inactive

Reference set (5 entries):
{"MOLECULE": "Oc1c(C(O)(c2ccccc2)c2ccc3ccccc3c2O)ccc2ccccc12", "CAT": "YES"}
{"MOLECULE": "CCC(CC)(c1ccc(C)cc1)c1ccc(C)cc1", "CAT": "YES"}
{"MOLECULE": "CN(C)CCCNCC(=O)Nc1ccc(S(=O)(=O)c2ccc(NC(=O)CNCCCN(C)C)cc2)cc1", "CAT": "YES"}
{"MOLECULE": "Nc1ncnc2c1ncn2CC(O)CN(CCO)CCO (stereo unspecified) (tested in a mixture with another compound)", "CAT": "NO"}
{"MOLECULE": "Cc1ccc2nc(-c3ccc(N)cc3)sc2c1", "CAT": "NO"}

Dear colleague, could you share the recorded outcome for `CCCCCC/C=C/C#CCCCCCCCC(=O)O` when you have a moment?
NO

Dear colleague, could you share the recorded outcome for `Cn1c(=S)c2[nH]c(SC3CCCCC3)nc2n(C)c1=O` when you have a moment?
NO

Dear colleague, could you share the recorded outcome for Cc1ccccc1NC(=O)C1C(=O)N(c2ccccc2C)C(=O)/C1=N/O (stereo unspecified) when you have a moment?
NO

Dear colleague, could you share the recorded outcome for `O=C(NCCCl)Nc1c2ccccc2nc2ccccc12` when you have a moment?
NO

Dear colleague, could you share the recorded outcome for CC(N1CCOCC1)C(O)(c1ccccc1)c1ccccn1 (stereo unspecified) when you have a moment?
NO

Dear colleague, could you share the recorded outcome for `CCCCCCCCCCCC(=O)N(CC)CC` when you have a moment?
YES

Dear colleague, could you share the recorded outcome for CCCCC(O)(c1ccc2nc(NC(=O)OC)[nH]c2c1)c1cccs1 (stereo unspecified) when you have a moment?
NO

Dear colleague, could you share the recorded outcome for `CCCCCCCCCCCCNC(=O)c1cc[n+](Cc2ccc(Cl)c(Cl)c2)cc1` when you have a moment?
YES

Dear colleague, could you share the recorded outcome for `O=c1c(Cc2c[nH]c3ccccc23)coc2ccccc12` when you have a moment?
YES

Dear colleague, could you share the recorded outcome for CC(O)c1c2c(cc3c1CC1(C3)Cc3cc4c(c(C(C)O)c3C1)CCC4)CCC2 (stereo unspecified) when you have a moment?
YES

Dear colleague, could you share the recorded outcome for O=C(Nc1ccc(C(F)(F)F)cc1[N+](=O)[O-])C(=O)C(C(=O)c1ccc2ccccc2c1)C1OC(=O)c2ccccc21 (stereo unspecified) when you have a moment?
NO
